B1: ZBED3 (parent)
chain: QARLRDVSRREGALGWAPAAPPPL

- Variants of: B1
- TEST DESCRIPTION: protein stability index of a GFP-peptide fusion (GPS, HEK-293T) (PSI 1-6); higher = more stable;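 further: lentivirally expressed fusions sorted by FACS into six bins by GFP to DsRed ratio, PSI derived from sequencing read proportions per bin multiplied by bin number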
- CONDITION DETAILS: c terminus: a fixed tail appended

- SEQUENCE RECORD: "QARLRDVSRREGALGWAPAAPPKL [P23K]"
  protein stability index: 3.33
- SEQUENCE RECORD: "QARLRDVSRREGALGWAPAAPPCL [P23C]"
  protein stability index: 3.19
- SEQUENCE RECORD: "QARLRDVSRREGALGWAPAAVPPL [P21V]"
  protein stability index: 3.27
- SEQUENCE RECORD: "QARLRDVSRREGALGWAPAACPPL [P21C]"
  protein stability index: 2.31
- SEQUENCE RECORD: "QARLRDVSRREGALGWAPAAPAPL [P22A]"
  protein stability index: 3.65
- SEQUENCE RECORD: "QARLRDVSRREGALGWAPAAPVPL [P22V]"
  protein stability index: 2.46
- SEQUENCE RECORD: "QARLRDVSRREGALGWAPAAGPPL [P21G]"
  protein stability index: 3.02
- SEQUENCE RECORD: "QARLRDVSRREGALGWAPAAMPPL [P21M]"
  protein stability index: 3.2
- SEQUENCE RECORD: "QARLRDVSRREGALGWAPAAPWPL [P22W]"
  protein stability index: 2.62
- SEQUENCE RECORD: "QARLRDVSRREGALGWAPAAPIPL [P22I]"
  protein stability index: 2.74
- SEQUENCE RECORD: "QARLRDVSRREGALGWAPAALPPL [P21L]"
  protein stability index: 2.67
- SEQUENCE RECORD: "QARLRDVSRREGALGWAPAAPPNL [P23N]"
  protein stability index: 3.18
- SEQUENCE RECORD: "QARLRDVSRREGALGWAPAAIPPL [P21I]"
  protein stability index: 2.84
- SEQUENCE RECORD: "QARLRDVSRREGALGWAPAAKPPL [P21K]"
  protein stability index: 3.55
- SEQUENCE RECORD: "QARLRDVSRREGALGWAPAAAPPL [P21A]"
  protein stability index: 3.1
- SEQUENCE RECORD: "QARLRDVSRREGALGWAPAAPPQL [P23Q]"
  protein stability index: 3.5
- SEQUENCE RECORD: "QARLRDVSRREGALGWAPAAEPPL [P21E]"
  protein stability index: 3.87
- SEQUENCE RECORD: "QARLRDVSRREGALGWAPAAPPDL [P23D]"
  protein stability index: 3.81
- SEQUENCE RECORD: "QARLRDVSRREGALGWAPAAPYPL [P22Y]"
  protein stability index: 2.37
- SEQUENCE RECORD: "QARLRDVSRREGALGWAPAAQPPL [P21Q]"
  protein stability index: 3.22
- SEQUENCE RECORD: "QARLRDVSRREGALGWAPAAWPPL [P21W]"
  protein stability index: 2.12
- SEQUENCE RECORD: "QARLRDVSRREGALGWAPAAPPIL [P23I]"
  protein stability index: 2.36
- SEQUENCE RECORD: "QARLRDVSRREGALGWAPAAPCPL [P22C]"
  protein stability index: 2.29
- SEQUENCE RECORD: "QARLRDVSRREGALGWAPAAPEPL [P22E]"
  protein stability index: 4.2
- SEQUENCE RECORD: "QARLRDVSRREGALGWAPAAPPLL [P23L]"
  protein stability index: 2.9
- SEQUENCE RECORD: "QARLRDVSRREGALGWAPAAPKPL [P22K]"
  protein stability index: 3.62
- SEQUENCE RECORD: "QARLRDVSRREGALGWAPAAPNPL [P22N]"
  protein stability index: 3.26
- SEQUENCE RECORD: "QARLRDVSRREGALGWAPAADPPL [P21D]"
  protein stability index: 3.96
- SEQUENCE RECORD: "QARLRDVSRREGALGWAPAAPRPL [P22R]"
  protein stability index: 3.31
- SEQUENCE RECORD: "QARLRDVSRREGALGWAPAAPMPL [P22M]"
  protein stability index: 3.16
- SEQUENCE RECORD: "QARLRDVSRREGALGWAPAAFPPL [P21F]"
  protein stability index: 2.48
- SEQUENCE RECORD: "QARLRDVSRREGALGWAPAARPPL [P21R]"
  protein stability index: 3.49
- SEQUENCE RECORD: "QARLRDVSRREGALGWAPAAPSPL [P22S]"
  protein stability index: 3.2
- SEQUENCE RECORD: "QARLRDVSRREGALGWAPAAPGPL [P22G]"
  protein stability index: 3.34
- SEQUENCE RECORD: "QARLRDVSRREGALGWAPAAPFPL [P22F]"
  protein stability index: 2.89
- SEQUENCE RECORD: "QARLRDVSRREGALGWAPAAPQPL [P22Q]"
  protein stability index: 3.29
- SEQUENCE RECORD: "QARLRDVSRREGALGWAPAAPPRL [P23R]"
  protein stability index: 3.33
- SEQUENCE RECORD: "QARLRDVSRREGALGWAPAASPPL [P21S]"
  protein stability index: 3.5
- SEQUENCE RECORD: "QARLRDVSRREGALGWAPAAPPAL [P23A]"
  protein stability index: 3.38
- SEQUENCE RECORD: "QARLRDVSRREGALGWAPAAPPEL [P23E]"
  protein stability index: 3.12
- SEQUENCE RECORD: "QARLRDVSRREGALGWAEAAPPPL [P18E]"
  protein stability index: 3.56
- SEQUENCE RECORD: "QARLRDVSRREGALGWAPAAPPGL [P23G]"
  protein stability index: 3.73
- SEQUENCE RECORD: "QARLRDVSRREGALGWAPAAPPSL [P23S]"
  protein stability index: 3.63
- SEQUENCE RECORD: "QARLRDVSRREGALGWAPAAPTPL [P22T]"
  protein stability index: 3.11
- SEQUENCE RECORD: "QARLRDVSRREGALGWAPAAPPML [P23M]"
  protein stability index: 2.86
- SEQUENCE RECORD: "QARLRDVSRREGALGWAPAWPPPL [A20W]"
  protein stability index: 1.96
- SEQUENCE RECORD: "QARLRDVSRREGALGWAPAAPPVL [P23V]"
  protein stability index: 2.79
- SEQUENCE RECORD: "QARLRDVSRREGALGWAPAAPHPL [P22H]"
  protein stability index: 3.45
- SEQUENCE RECORD: "QARLRDVSRREGALGWAPAAPLPL [P22L]"
  protein stability index: 3.46
- SEQUENCE RECORD: "QARLRDVSRREGALGWAPAAPPYL [P23Y]"
  protein stability index: 2.06
- SEQUENCE RECORD: "QARLRDVSRREGALGWAPAAPPFL [P23F]"
  protein stability index: 2.79
- SEQUENCE RECORD: "QARLRDVSRREGALGWAPAAPPWL [P23W]"
  protein stability index: 2.08
- SEQUENCE RECORD: "QARLRDVSRREGALGWAPAANPPL [P21N]"
  protein stability index: 2.84
- SEQUENCE RECORD: "QARLRDVSRREGALGWAPAAYPPL [P21Y]"
  protein stability index: 2.02

FYI, the data here is from the supplement of paper PMC10567573.
